Data origin, for the record: PubChem BioAssay (NCI)

experiment: NCI Yeast Anticancer Drug Screen. Data for the sgs1 mgt1 strain (AID 161);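 note: 0% = growth of cultures given vehicle only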; details: S. cerevisiae sgs1 mgt1 strain, at 50.0 µM, hits give high values
About 79,000 compounds went through this panel and 15% of them were active in at least one assay; those are over-represented in the sample as a whole.
growth inhibition vs 70%: at or above is t, below is f.

Sample answers from the record:
compound="COc1cccc(C(NC2=NCCC=N2)c2cc3c(cc2O)OCO3)c1O (stereo not given)" group=t
compound=Cc1cc(Cl)ccc1NC(=O)/C(Cl)=C(/Cl)C(=O)O group=t
compound=CC1(C2CC2)C(C#N)(C#N)C1(C#N)C#N group=f

Next item in the queue.
Test whether the compound COc1ccc(C(C)c2cc3c(cc2OC(C)O)OCO3)cc1 (stereo not given) records growth inhibition of 70% or higher.
f

----------
experiment: NCI Yeast Anticancer Drug Screen. Data for the rad52 strain (AID 147);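 note: 0% = growth of vehicle-treated control cultures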; details: S. cerevisiae rad52 mutant growth inhibition; at 100.0 µM
About 79,000 compounds went through this panel and 15% of them were active in at least one assay; those are over-represented in the sample as a whole. Active and inactive are the calls of the source. No stated cut-off is given here; in the data, active means growth inhibition above about 70%; inactive means the rest.
Field 'call' accepts true for active, false for inactive

compound=O=C(Oc1ccc([N+](=O)[O-])cc1)c1ccc([N+](=O)[O-])cc1 group=false
compound="COc1ccc2c(c1)CCCC(Br)C2=O (stereo not given)" group=true
compound=Cc1ccc(Nc2n[nH]c(=S)s2)c(C)c1 group=true

Write down the call the test reported for this compound. Item: "CC(C)NCCCNc1c2ccccc2nc2cccc([N+](=O)[O-])c12"
true

Outcome? "c1ccc2nc3c(nc2c1)sc1ccccc13"
true

Called result for CC(CN(C)C)C(=O)/C=C/c1ccc(Cl)c(Cl)c1 (stereo not given)
true

For "O=[N+]([O-])c1ccc(C(c2c[nH]c3ccccc23)c2c[nH]c3ccccc23)cc1" , which call appears in the assay record?
true

Recorded test outcome, item "O=c1c2ccccc2nc(-c2ccc(Cl)cc2)n1O"
true

Returns: the outcome recorded for O=C(O)C1CCCCC1c1c2ccc(=O)cc-2oc2cc(O)ccc12 (stereo not given) in this assay.
true

Dear all, I need the recorded test outcome for "CC(=O)CCC1=C(C)C(=O)C(=O)C(C)=C1O" , thank you.
true

Test call, this compound: "CC1(C)OC(=O)C(=Cc2ccc([N+](=O)[O-])s2)C(=O)O1"
true

----------
Experiment: NCI Yeast Anticancer Drug Screen. Data for the mlh1 strain (AID 171);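 note: 0% = growth of vehicle-treated control cultures of the same strain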
Conditions: S. cerevisiae mlh1 strain growth inhibition; at 11.0 µM; hits give high values
Description: Growth inhibition of yeast strains with defined genetic alterations is measured as a screen for potential anti-cancer activity. Selected strains with alterations in DNA damage repair or cell cycle control were exposed to compounds and growth inhibition was measured relative to vehicle treated controls. The strain used in this assay is mlh1
The panel holds about 79,000 compounds, 15% with a hit somewhere; the sample as a whole holds those more often.
Catalogue of compounds with associated growth inhibition
Write the number in % without appending the unit.

Would you please look over these solved cases?
compound=O=[N+]([O-])c1ccc(C(c2c[nH]c3ccccc23)c2c[nH]c3ccccc23)cc1 unit_symbol=% reported_value=97
compound=CCN(CC)CCCNc1ccc([N+](=O)[O-])c2nc3ccc(OC)cc3c(NCCCN(CC)CC)c12 unit_symbol=% reported_value=0
compound="O=C1c2ccccc2N2OC3(N4CCCC4)CCCCC3C12c1ccccc1 (centres undefined)" unit_symbol=% reported_value=-41
compound=Cc1cc(O)c(C(C)C)cc1SC#N unit_symbol=% reported_value=58
compound=N#Cc1nc(Nc2ccc(Cl)cc2)sc1N unit_symbol=% reported_value=21
compound=CNC(=S)N/N=C(/C)CCC/C(C)=N/NC(=S)NC unit_symbol=% reported_value=52

For the compound "CC(C)NCCCNc1c2ccccc2nc2cccc([N+](=O)[O-])c12" , give its reported growth inhibition.
91

Let me know recorded growth inhibition for COc1cccc(C(NC2=NCCC=N2)c2cc3c(cc2O)OCO3)c1O (centres undefined) , thanks.
2

Fill in reported growth inhibition for this entry: "COc1ccc2nc(CCc3ccccc3)ccc2c1"
-12

Supply reported growth inhibition belonging to this compound: O=C1C(CCSc2ccccc2)C(=O)N(c2ccccc2)C1c1ccccc1 (centres undefined)
28

Dear colleague, please send me the reported growth inhibition for c1ccc(-c2cc(C3CO3)c3ccccc3n2)cc1 (centres undefined) when you can.
6

Provide measured growth inhibition value, entry: "Cc1ccc(S(=O)(=O)Nc2cccc3cccnc23)cc1"
9

Determine its reported growth inhibition: "CC(=O)/C=C/c1cccc([N+](=O)[O-])c1"
10

For the compound "NC(=S)N1N=C2c3ccccc3CC[C@H]2[C@@H]1c1ccc(Cl)cc1" , give its reported growth inhibition.
28

----------
experiment: NCI Yeast Anticancer Drug Screen. Data for the mec2-1 strain (AID 157); conditions: S. cerevisiae mec2-1 strain, at 1.2 µM, hits give high values
Compounds without any hit were thinned out: in the full panel of roughly 79,000, 15% have a hit.
reported endpoint: growth inhibition (%)
Numbers only here, please. The scale is %.

Tell me measured growth inhibition for "N#Cc1nc(Nc2ccc(Cl)cc2)sc1N" please.
-37

Given O=C(NCCCCN1CC2CCCC2C1)C(C1CCCCC1)C1CCCCC1 (stereo unspecified) , respond with its growth inhibition.
13

----------
experiment: NCI Yeast Anticancer Drug Screen. Data for the bub3 strain (AID 167); conditions: S. cerevisiae bub3 mutant strain, at 1.2 µM, hits give high values
This is part of a sample that, as a whole, favours compounds with a hit. Of some 79,000 tested, about 15% had one in any assay.
reported endpoint: growth inhibition (%)
Write the number in % without appending the unit.

For orientation, consider the following solved cases.
molecule=O=C(O)c1ccc2cc(Cl)c3ccccc3c2c1 reported_endpoint="growth inhibition" reported_value=-4
molecule=Brc1ccc(B2Nc3ccccc3N2)cc1 reported_endpoint="growth inhibition" reported_value=9
molecule=CCC(/C=C/c1ccccc1)=N\Nc1ccc(Cl)cc1 reported_endpoint="growth inhibition" reported_value=-2
molecule=O=C(NC(N1CCN(c2cc3c(cc2F)c(=O)c(C(=O)O)cn3C2CC2)CC1)(C(F)(F)F)C(F)(F)F)c1ccccc1 reported_endpoint="growth inhibition" reported_value=0
molecule="CC1=NN(C(=O)CC(=O)NC(=O)/C=C\\c2ccccc2)C(=O)C1N=Nc1ccc([N+](=O)[O-])cc1 (stereo not given)" reported_endpoint="growth inhibition" reported_value=-1

Identify measured growth inhibition corresponding to "Cc1cc(C)c(S(=O)(=O)c2ccc(Cl)cc2)c(C)c1"
-3

Respond only with growth inhibition recorded for O=C(O)c1cc2c(cc1S(=O)(=O)O)C1C(C3C2C2(Cl)C(Cl)=C(Cl)C3(Cl)C2(Cl)Cl)C2(Cl)C(Cl)=C(Cl)C1(Cl)C2(Cl)Cl (stereo not given)
-3

Note growth inhibition for the molecule shown: "Oc1ccc(N=Nc2ccc(Cl)cc2)cc1"
57

Return value of growth inhibition for input COC1=CCC23C(=O)C=CC(=O)C2(C1)C(=O)c1ccccc1C3=O (stereo not given) , no commentary.
-30

Look up and state reported growth inhibition for "CCCNC(=O)OCc1c(COC(=O)NCCC)c(-c2ccc(Cl)c(Cl)c2)n2c1CCC2"
-53

Output growth inhibition of CCC(=O)C1=C(O)c2cc(OC)ccc2CC1C(=O)OC (stereo not given)
-7

Quick one: give measured growth inhibition for "CCCCCCCCCCCCCCN"
25

Please give measured growth inhibition of the following entry: "Nc1cc(Cl)ccc1Nc1ccccc1"
-21

Look up growth inhibition of "O=C(CCCN1CCC(Nc2ccc(F)cc2)(c2nnnn2C2CCCCC2)CC1)c1ccc(F)cc1" and report it.
-2

Provide growth inhibition value for the following molecule: "O=[N+]([O-])c1ccc2[nH]c3c(-c4ccccc4)nccc3c2c1"
10

----------
assay: NCI Yeast Anticancer Drug Screen. Data for the wt2 strain (AID 169);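 note: 0% = growth of vehicle-treated yeast cultures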; details: S. cerevisiae wt2 strain growth inhibition; at 100.0 µM; hits give high values
This is part of a sample that, as a whole, favours compounds with a hit. Of some 79,000 tested, about 15% had one in any assay.
reported endpoint: growth inhibition (%)
Field format: number, assumed %, no unit text.

Here is how some compounds turned out for growth inhibition.
compound="c1ccc2c(c1)N=C1CCCC3CCCC123 (configuration not stated)" reported_endpoint="growth inhibition" unit_symbol=% reported_value=98
compound="CCCCCCCCCCCCCCCCCCNc1nc(=O)n(C2CC(OP(=O)(O)OCC3OC(n4cc(F)c(=O)[nH]c4=O)CC3O)C(CO)O2)cc1F (configuration not stated)" reported_endpoint="growth inhibition" unit_symbol=% reported_value=79
compound="CC(=O)O[C@H]1CC[C@@]2(C)C(=CC[C@@H]3C2CC[C@]2(C)C(=O)NC(=O)CC32)C1 (some centres not stated)" reported_endpoint="growth inhibition" unit_symbol=% reported_value=71
compound="O=C(NNc1ccccc1)C(CCCCNS(=O)(=O)Cc1ccccc1)NS(=O)(=O)Cc1ccccc1 (configuration not stated)" reported_endpoint="growth inhibition" unit_symbol=% reported_value=51

Find the measured growth inhibition of "Cc1c2c(nc3ccccc13)C(=O)c1cccnc1C2=O" and report it.
73

Quick one: give measured growth inhibition for "C[n+]1c(/C=C/c2ccc(/C=N/NC(=O)c3ccc(C(=O)N/N=C/c4ccc(/C=C/c5cn6ccccc6[n+]5C)cc4)cc3)cc2)cn2ccccc21"
97

Give a short answer stating reported growth inhibition for "O=S(=O)(c1ccccc1)N1CN2CN(C1)CN(S(=O)(=O)c1ccccc1)C2" .
5

Annotate the compound "CC(=O)/C=C/c1cc([N+](=O)[O-])ccc1O" with its measured growth inhibition.
98

Tell us which growth inhibition value is on record for "CCOP(=O)(OCC)/C(C#N)=C\c1cccc2ccccc12"
98

Given the compound Cc1ccc(NC(=O)CCC(=O)C(C)C(=O)c2ccccc2)c(C)c1 (configuration not stated) , write its reported growth inhibition.
-4

Annotate the compound "OC1(C#CI)CCCCC1" with its measured growth inhibition.
100

Please look at this compound and report its growth inhibition: "O=C(C#Cc1ccccc1)Nc1ccccc1"
99

Identify growth inhibition associated with the compound O=C(NCCCCN1CC2CCCC2C1)C(C1CCCCC1)C1CCCCC1 (configuration not stated)
98

Give growth inhibition for the following compound: "O=C(/C=C/c1ccsc1)c1cccs1"
85
